The reported numbers originate from ChEMBL document CHEMBL1134165.

# Tested on: Nucleic Acid
# method.summary: Delta Tm is the difference between the melting temperature of calf thymus DNA in the presence and absence of 2-peptide conjugate at a 10:1 ratio of DNA/drug
# Format: nucleic-acid assay
# stated.conditions: Bos taurus
quantity.name: ΔTm

Take a look at these entries with their results.
> print(dat)
      substance  measured.result
1  H-AKCRKRA-OH                9
2   H-AKCRKA-OH              7.3
3  H-AAKCRAA-OH                6

1. H-AKCRDA-OH
2. H-AKCRDRA-OH
Prompt line: Of 1 and 2 , whose reported ΔTm is the larger number? Write down the label of the entry you select.
Response line: 2
(2: 10.3, 1: 5.5)
